Cited source for all entries: ChEMBL document CHEMBL3407431

Lab note: IC50 readings collected with Tyrosinase (Agaricus bisporus) for the following compounds.
Sequence (O42713 whole entry): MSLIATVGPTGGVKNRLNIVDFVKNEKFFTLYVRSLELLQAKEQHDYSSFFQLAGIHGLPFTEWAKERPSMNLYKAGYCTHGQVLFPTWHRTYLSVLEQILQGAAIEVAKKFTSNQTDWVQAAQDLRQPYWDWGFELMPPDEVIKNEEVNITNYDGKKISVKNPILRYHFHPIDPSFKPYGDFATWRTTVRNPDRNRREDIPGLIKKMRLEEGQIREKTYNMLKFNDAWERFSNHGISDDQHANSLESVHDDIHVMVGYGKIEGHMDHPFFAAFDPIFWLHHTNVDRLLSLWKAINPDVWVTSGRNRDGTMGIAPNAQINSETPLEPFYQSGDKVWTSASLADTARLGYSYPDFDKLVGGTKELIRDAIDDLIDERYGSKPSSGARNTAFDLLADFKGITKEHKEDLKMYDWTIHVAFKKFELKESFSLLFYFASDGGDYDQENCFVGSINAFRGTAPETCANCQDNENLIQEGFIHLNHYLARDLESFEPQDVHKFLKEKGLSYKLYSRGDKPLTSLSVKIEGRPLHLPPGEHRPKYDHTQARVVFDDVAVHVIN

| Smiles code | IC50, nM |
| --- | --- |
| CC(=O)Nc1cccc(/C(C)=N/NC(N)=S)c1 | 4120 |
| CC(=O)Nc1ccc(/C(C)=N/NC(N)=S)cc1 | 508 |
| COC(=O)Nc1ccc(/C(C)=N/NC(N)=S)cc1 | 498 |
| C/C(=N\NC(N)=S)c1cccc(NC(=O)C(F)(F)F)c1 | 5760 |
| CCCCCCC(=O)Nc1ccc(/C(C)=N/NC(N)=S)cc1 | 356 |
| C/C(=N\NC(N)=S)c1ccc(NC(=O)Cc2ccccc2)cc1 | 578 |
| C/C(=N\NC(N)=S)c1cccc(NC(=O)C(C)C)c1 | 3620 |
| C/C(=N\NC(N)=S)c1cccc(NC(=O)c2ccccc2)c1 | 1530 |
| CCCCCC(=O)Nc1ccc(/C(C)=N/NC(N)=S)cc1 | 762 |
| CCCCC(=O)Nc1ccc(/C(C)=N/NC(N)=S)cc1 | 492 |
